Listed here: items and their measured activation.
- ASSAY_SYSTEM: Cellular tumor antigen p53 (Homo sapiens) (UniProt P04637)
- Sequence (P04637 whole entry, looked up): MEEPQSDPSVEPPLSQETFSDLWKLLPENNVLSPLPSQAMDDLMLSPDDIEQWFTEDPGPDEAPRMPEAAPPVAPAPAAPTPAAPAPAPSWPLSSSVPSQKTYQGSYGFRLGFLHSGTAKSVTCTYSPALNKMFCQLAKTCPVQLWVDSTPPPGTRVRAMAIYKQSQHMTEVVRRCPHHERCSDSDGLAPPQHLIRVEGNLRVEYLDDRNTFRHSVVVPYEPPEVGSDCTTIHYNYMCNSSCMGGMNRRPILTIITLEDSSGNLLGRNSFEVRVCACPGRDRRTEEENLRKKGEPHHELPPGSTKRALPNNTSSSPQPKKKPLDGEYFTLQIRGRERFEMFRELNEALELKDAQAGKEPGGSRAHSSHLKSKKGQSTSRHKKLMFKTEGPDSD
- PROTOCOL_DETAILS: Primary qHTS for small molecule compounds that upregulate eGFP-tagged delta133p53alpha (in N-terminal) cells. (AID 2060322);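 note: cells pre-induced with doxycycline then dosed without doxycycline; series mostly up to about 56 µM; 0% = DMSO vehicle and 100% = reference activator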
- CONDITION_CONTEXT: NCI-H358 eGFP-delta133p53alpha fluorescence, 24 h; stronger effect = higher value
Records with an inconclusive call do not appear.
QUANTITY_MEASURED: activation (%)

compound=CN(CC(=O)N(Cc1ccc(C2CCCCC2)cc1)c1ccc(C(=O)O)c(O)c1)S(=O)(=O)c1c(F)c(F)c(F)c(F)c1F quantity_measured=activation unit_symbol=% value=37.6
compound=CCCOc1ccc(-c2nc(OC)c3ccccc3n2)cc1 quantity_measured=activation unit_symbol=% value=-5.67
compound=O=C(Nc1ccccc1)c1ccc(Nc2nnc(-c3ccc(O)cc3)c3ccccc23)cc1 quantity_measured=activation unit_symbol=% value=2.39
compound=CCCCn1ccc(N2CCC(c3ccccc3)CC2)c(Cl)c1=O quantity_measured=activation unit_symbol=% value=-2.33
compound=O=C1C[C@@H](c2ccc(O)cc2)Oc2cc(O)ccc21 quantity_measured=activation unit_symbol=% value=4.3
compound=Clc1nccc2c1ccc1ccccc12 quantity_measured=activation unit_symbol=% value=-42.2
compound=O=C1NC(=O)C(=Cc2ccc3nccc(-c4ccncc4)c3c2)S1 quantity_measured=activation unit_symbol=% value=3.34
compound="CC1=CC(=O)CC(C)(C)[C@H]1/C=C/C(CO)O[C@@H]1O[C@H](CO)[C@@H](O)[C@H](O)[C@H]1O (stereo partly drawn)" quantity_measured=activation unit_symbol=% value=9.16
compound="COC(=O)C1=C2Nc3ccccc3C23CCN2CCCC(C(C)O)(C1)C23 (stereo not drawn)" quantity_measured=activation unit_symbol=% value=18.8
compound=CC1=C(/C=C/C(C)=C\C=C\C(C)=C/C(=O)O)C(C)(C)CCC1 quantity_measured=activation unit_symbol=% value=11.5
compound="COC(=O)C(CC1(OC(=O)C(C)C)c2ccccc2N2C(=O)C(C)(C)N(O)C21)n1cnc2ccccc2c1=O (stereo not drawn)" quantity_measured=activation unit_symbol=% value=3.05
compound="Cc1c(C(=O)Nc2ccc(N3CC(C)OC(C)C3)nc2)cccc1-c1ccc(OC(F)(F)F)cc1 (stereo not drawn)" quantity_measured=activation unit_symbol=% value=20
compound=CCCc1ncc(C[n+]2ccccc2C)c(N)n1 quantity_measured=activation unit_symbol=% value=13.4
compound=COc1ccc(Sc2ccc(NC(=O)c3ccccc3Cl)cc2C#N)cc1 quantity_measured=activation unit_symbol=% value=20.3
compound=CC(=O)N(C)C1(c2ccccc2)CCN(CCC[C@]2(c3ccc(Cl)c(Cl)c3)CCCN(C(=O)c3ccccc3)C2)CC1 quantity_measured=activation unit_symbol=% value=16.9
compound=O=C(O)CCCCCC[C@H]1C(=O)NC(=O)N1CC[C@@H](O)C1CCCCC1 quantity_measured=activation unit_symbol=% value=-1.67
compound="COC1CC(=O)C23C(=O)NC(CC(C)C)C2C(C)C(C)=CC3/C=C(\\C)CCCC1O (stereo not drawn)" quantity_measured=activation unit_symbol=% value=16.8
compound=O=C(O)[C@H](CC(=O)N1C[C@@H]2CCCC[C@H]2C1)Cc1ccccc1 quantity_measured=activation unit_symbol=% value=-15.3
compound=CC(=O)O[C@@]1(C)C[C@@H](O)[C@]2(O)C=CO[C@@H](O[C@@H]3O[C@H](CO)[C@@H](O)[C@H](O)[C@H]3O)[C@@H]21 quantity_measured=activation unit_symbol=% value=-14.5
compound=O=C(O)C(=O)Nc1cccc(-c2nn[nH]n2)c1 quantity_measured=activation unit_symbol=% value=-3.95
compound=CCOc1ncc(F)c(=O)[nH]1 quantity_measured=activation unit_symbol=% value=3.95
compound=CO[C@H]1C[C@@H]2CC[C@@H](C)[C@@](O)(O2)C(=O)C(=O)N2CCCC[C@H]2C(=O)O[C@H]([C@H](C)C[C@H]2CC[C@@H](OP(C)(C)=O)[C@H](OC)C2)CC(=O)[C@H](C)/C=C(\C)[C@@H](O)[C@@H](OC)C(=O)[C@H](C)C[C@H](C)/C=C/C=C/C=C/1C quantity_measured=activation unit_symbol=% value=11
compound=CNC(=O)c1ccc2cc([C@@]3(O)CCn4cncc43)ccc2c1 quantity_measured=activation unit_symbol=% value=-9.55
